Below is a list of entries, each paired with its recorded EC50 value.
system: Pyricularia oryzae (PYRIOR); experiment: microbe, parasite or virus in culture; format: cell-based; settings: 72 h, read-out: EC50 PYRIOR
Measure name: EC50 (µg/mL)

Compound: CCCCOCCOCC#CCn1nc(-c2ccc(Cl)cn2)ccc1=O [drawing 99]
Test target: Pyricularia oryzae (PYRIOR)
Assay result: 0.05

Compound: CCC#CCN1N=C(c2ccc(Cl)c(Cl)n2)CCC1=O
Test target: Pyricularia oryzae (PYRIOR)
Assay result: 0.031

Compound: CCCCCOCC#CCn1nc(-c2ccc(Cl)cn2)ccc1=O [drawing 98]
Test target: Pyricularia oryzae (PYRIOR)
Assay result: 0.192

Compound: CCC#CCN1N=C(c2ncc(Cl)cc2Cl)CCC1=O [drawing 110]
Test target: Pyricularia oryzae (PYRIOR)
Assay result: 3.47

Compound: CCC#CCn1nc(-c2ccc(Cl)c(Cl)n2)ccc1=O [drawing 106]
Test target: Pyricularia oryzae (PYRIOR)
Assay result: 0.0371

Hey, just so you know, these numbers are from patent US8426412B2.
